Hi there, I'd appreciate the recorded CC50 for every entry that follows.
# Tested on: Vero C1008
# Assay Method Text: Cytotoxicity against African green monkey GFP tagged Vero E6 cells assessed as reduction in cell viability by measuring fluoroscence in presence of […] at 2 uM after 72 hrs
# Format: toxicity, cell-based
# Condition Notes: chlorocebus sabaeus, vero c1008, 72 h, 2 µM

See these solved cases before continuing.
Compound: O=C(NCCc1ccccc1)C(=O)[C@H](C[C@@H]1CCNC1=O)NC(=O)[C@@H]1CCCN1C(=O)OCc1ccccc1
Obs Value: > 100 µM
--
Compound: O=C(NCCc1ccccc1F)C(=O)[C@H](C[C@@H]1CCNC1=O)NC(=O)[C@@H]1CCCN1C(=O)COc1ccc(Cl)cc1Cl
Obs Value: > 100 µM
--
Compound: O=C(NCCc1ccccc1)C(=O)[C@H](C[C@@H]1CCNC1=O)NC(=O)[C@@H]1CCCN1C(=O)COc1ccc(Cl)cc1Cl
Obs Value: > 100 µM

Dear colleague, could you send me CC50 for each of the items below? Thanks.
1. O=C(NCc1ccccc1)C(=O)[C@H](C[C@@H]1CCNC1=O)NC(=O)[C@@H]1CCCN1C(=O)COc1ccc(Cl)cc1Cl
2. O=C(NCCc1ccccc1F)C(=O)[C@H](C[C@@H]1CCNC1=O)NC(=O)[C@@H]1CCCN1C(=O)OCc1ccccc1
3. COc1ccccc1CCNC(=O)C(=O)[C@H](C[C@@H]1CCNC1=O)NC(=O)[C@@H]1CCCN1C(=O)COc1ccc(Cl)cc1Cl
4. COc1ccccc1CCNC(=O)C(=O)[C@H](C[C@@H]1CCNC1=O)NC(=O)[C@@H]1CCCN1C(=O)OCc1ccccc1
5. O=C(NCc1ccccc1)C(=O)[C@H](C[C@@H]1CCNC1=O)NC(=O)[C@@H]1CCCN1S(=O)(=O)Cc1ccccc1
6. CC(C)C[C@H](NC(=O)OCc1ccccc1)C(=O)N[C@@H](CC1CCNC1=O)C(O)S(=O)(=O)O (some centres undefined)

Found:
1. > 100 µM
2. > 100 µM
3. > 100 µM
4. > 100 µM
5. > 100 µM
6. > 100 µM
